The measured values listed here are drawn from the emibetuzumab library of Makowski et al. (2022).

B1: VH:VL chains; a variant is named by its letters at X, in order (parent)
chain 1: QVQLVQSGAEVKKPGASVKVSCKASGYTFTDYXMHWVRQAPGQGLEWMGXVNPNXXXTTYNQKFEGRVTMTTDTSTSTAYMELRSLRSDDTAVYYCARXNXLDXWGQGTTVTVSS
chain 2: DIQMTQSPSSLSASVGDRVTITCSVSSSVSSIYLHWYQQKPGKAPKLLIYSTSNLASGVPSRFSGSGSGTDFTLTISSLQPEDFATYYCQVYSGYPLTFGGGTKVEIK

Variants of: B1
Experiment: yeast display scFab, FACS + sequencing
Details: with MET
The list shows a part of the results. The true hit rate is not given.
readout.type: antigen binding call

For orientation, consider the following solved cases.
alteration	observed
YRRGSSLV	binds
FRRGDAVA	binds
VKEGGSAD	no binding
VRTRSSGV	binds
FKRRSASV	no binding

The measured antigen binding call associated with `YRGAGSAD` reads binds

The variant listed as `SEEASSSA` shows antigen binding call equal to no binding

Data point: `YEGTGDVV` ; antigen binding call = no binding
